# experimental.target: FGFR2 (Homo sapiens (Human))
# Sequence (P21802 22-821): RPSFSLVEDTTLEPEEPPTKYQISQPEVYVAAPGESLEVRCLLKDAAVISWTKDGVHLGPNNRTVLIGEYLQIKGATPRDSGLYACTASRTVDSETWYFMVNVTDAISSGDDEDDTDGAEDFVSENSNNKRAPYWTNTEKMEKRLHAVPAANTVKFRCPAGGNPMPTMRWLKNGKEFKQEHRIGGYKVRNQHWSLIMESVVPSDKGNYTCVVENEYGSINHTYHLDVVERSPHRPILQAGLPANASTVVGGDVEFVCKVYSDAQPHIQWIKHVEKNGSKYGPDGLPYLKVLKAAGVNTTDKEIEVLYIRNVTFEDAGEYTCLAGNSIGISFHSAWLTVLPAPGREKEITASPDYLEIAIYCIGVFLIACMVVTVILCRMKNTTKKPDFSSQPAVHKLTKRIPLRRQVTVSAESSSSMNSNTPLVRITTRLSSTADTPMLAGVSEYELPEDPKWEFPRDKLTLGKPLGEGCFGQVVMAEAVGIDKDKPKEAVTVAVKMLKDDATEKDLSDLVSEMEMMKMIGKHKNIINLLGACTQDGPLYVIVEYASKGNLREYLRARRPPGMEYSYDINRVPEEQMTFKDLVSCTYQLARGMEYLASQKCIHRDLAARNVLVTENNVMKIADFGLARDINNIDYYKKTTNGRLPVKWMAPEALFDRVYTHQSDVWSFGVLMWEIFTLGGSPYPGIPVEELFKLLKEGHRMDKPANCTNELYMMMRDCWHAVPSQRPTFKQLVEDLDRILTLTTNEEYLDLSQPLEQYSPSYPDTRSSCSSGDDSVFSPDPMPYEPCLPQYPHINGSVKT
# run.description: FGFR Enzymatic Assay (FRET peptide phosphorylation), FGFR2
# Format: biochemical
# experimental.parameters: pre-incubated for 5 to 10 minutes
# Experimental: The inhibitor potency of the exemplified compounds was measured in an enzyme assay that measures peptide phosphorylation using FRET measurements to detect product formation. Inhibitors were serially diluted in DMSO and a volume of 0.5 μL was transferred to the wells of a 384-well plate. The enzymes were purchased from Millipore or Invitrogen. GraphPad prism3 was used to analyze the data.
pIC50: −log10 of the molar value.
Please provide measured pIC50 for the entries that follow.

query: Write down the reported pIC50 of COc1cc(OC)c(F)c(N2Cc3cnc(-c4cn(C)nc4C)cc3N(Cc3cnn(CC4CCCO4)c3)C2=O)c1F (stereo not drawn) , test system: FGFR2 (Homo sapiens (Human)).
result: 7.52 to 8.00

query: Write down the reported pIC50 of COc1cc(OC)c(F)c(N2Cc3cnc(-c4ccc(C5(C#N)CCC5)nc4)cc3N(CC3CC3)C2=O)c1F , test system: FGFR2 (Homo sapiens (Human)).
result: > 8.00

query: Write down the reported pIC50 of COc1cc(OC)c(F)c(N2Cc3cnc(-c4cnn(C)c4)cc3N(c3ccc(C#N)cc3)C2=O)c1F , test system: FGFR2 (Homo sapiens (Human)).
result: 7.52 to 8.00

query: Write down the reported pIC50 of COc1cc(OC)c(F)c(N2Cc3cnc(-c4cncc(-n5ccnc5)c4)cc3C3(CC3)C2=O)c1F , test system: FGFR2 (Homo sapiens (Human)).
result: 6.70 to 7.52

query: Write down the reported pIC50 of COc1cc(OC)c(F)c(N2Cc3cnc(-c4cncc(C#N)c4)cc3C3(CC3)C2=O)c1F , test system: FGFR2 (Homo sapiens (Human)).
result: < 6.70

query: Write down the reported pIC50 of COc1cc(OC)c(F)c(N2Cc3cnc(-c4cc(N)c(F)cc4C)cc3C3(CC3)C2=O)c1F , test system: FGFR2 (Homo sapiens (Human)).
result: < 6.70

query: Write down the reported pIC50 of CCNC(=O)c1ccc(-c2cc3c(cn2)CN(c2c(F)c(OC)cc(OC)c2F)C(=O)N3CC)cn1 , test system: FGFR2 (Homo sapiens (Human)).
result: > 8.00

query: Write down the reported pIC50 of COc1cc(OC)c(F)c(N2Cc3cnc(-c4cn(C)nc4C)cc3N(Cc3ccn(C)c(=O)c3)C2=O)c1F , test system: FGFR2 (Homo sapiens (Human)).
result: 7.52 to 8.00

query: Write down the reported pIC50 of CCN1C(=O)N(c2c(F)c(OC)cc(OC)c2F)Cc2cnc(-c3cn(CC)nc3C)cc21 , test system: FGFR2 (Homo sapiens (Human)).
result: > 8.00

query: Write down the reported pIC50 of COc1cc(OC)c(F)c(N2Cc3cnc(-c4cncc(Cl)c4)cc3C3(CC3)C2=O)c1F , test system: FGFR2 (Homo sapiens (Human)).
result: < 6.70

query: Write down the reported pIC50 of COc1ccc(CN2C(=O)N(c3c(F)c(OC)cc(OC)c3F)Cc3cnc(-c4cn(C)nc4C)cc32)cn1 , test system: FGFR2 (Homo sapiens (Human)).
result: 7.52 to 8.00

query: Write down the reported pIC50 of COc1cc(OC)c(F)c(N2Cc3cnc(-c4cccnc4)cc3C3(CC3)C2=O)c1F , test system: FGFR2 (Homo sapiens (Human)).
result: 7.52 to 8.00

query: Write down the reported pIC50 of COc1cc(OC)c(F)c(N2Cc3cnc(-c4cn(C)nc4C)cc3N(c3ccc4c(c3)C(=O)N(C)C4)C2=O)c1F , test system: FGFR2 (Homo sapiens (Human)).
result: 7.52 to 8.00

query: Write down the reported pIC50 of COc1cc(OC)c(F)c(N2Cc3cnc(-c4cn(C)nc4C)cc3N(Cc3ccnc(C)n3)C2=O)c1F , test system: FGFR2 (Homo sapiens (Human)).
result: > 8.00

query: Write down the reported pIC50 of COc1cc(OC)c(F)c(N2Cc3cnc(-c4cncc(NS(C)(=O)=O)c4)cc3C3(CC3)C2=O)c1F , test system: FGFR2 (Homo sapiens (Human)).
result: 6.70 to 7.52
